molecular target: Mas-related G-protein coupled receptor member X1 (Homo sapiens); test: blockade of BAM8-22-evoked MrgX1 calcium response – HEK293 cells, Fluo-4 calcium flux, primary screen (AID 588676); settings: Fluo-4, BAM8-22 antagonism, at 10 µM
Out of some 310,000 compounds screened, about 3,900 (1.3%) were called active.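 How the source made its calls: active means calcium-response B-score plate-corrected more than 3 library SD below zero, starting fluorescence within 5 deviations, no agonist response on first addition; inactive means the rest.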 The list comes from a sample in which actives are over-represented; it also holds close analogues and randomly drawn compounds.
Pick one and only one: T for active, F for inactive

NC(=O)c1ccccc1N=Cc1ccc2ccccc2c1 :: F
COCCn1c(C)cc(C(=O)COC(=O)/C=C/c2cccc(OC)c2)c1C :: F
CC1=C/C(=N\OS(=O)(=O)c2ccccc2)C=CC1=O :: T
Cc1cc(OCCCCOc2ccc(C#N)cc2)ccc1[N+](=O)[O-] :: F
O=C(O)c1ccc(Cn2c(=S)[nH]c3cc(Cl)ccc3c2=O)cc1 :: F

Next:
Give the logged outcome of this assay for the following molecule: Cc1ccc(N2C(=O)CC(NCc3ccc4c(c3)OCO4)C2=O)cc1Cl (stereo unspecified)
F

###

molecular target: Mas-related G-protein coupled receptor member X1 (Homo sapiens); experiment: blockade of BAM8-22-evoked MrgX1 calcium response – HEK293 cells, Fluo-4 calcium flux, primary screen (AID 588676); conditions: Fluo-4, BAM8-22 antagonism, at 10 µM; stronger effect = lower value;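 on B-score: peak minus trough fluorescence over baseline after final BAM8-22 challenge near maximal dose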
About 3,900 (1.3%) of roughly 310,000 compounds were called active. This is one part of a sample in which actives are shown more often than they occur.
measured.metric: B-score

# example entries with known answers
CCOCCCNC(=O)C1(O)c2cc(Br)ccc2NC(=O)N1c1ccc(C)c(C)c1 (stereo not given) :: inactive
CCN(C(=O)CSc1nnnn1-c1ccccc1OC)C1CCS(=O)(=O)C1 (stereo not given) :: inactive
Cc1ccc2nc(-c3ccc(NC(=O)CN(C)S(=O)(=O)c4ccccc4)cc3)sc2c1 :: -4.7 (active)
CCOc1cc(C(=O)Nc2c(C)ccc3nsnc23)cc(OCC)c1OCC :: inactive

Working through the 6 compounds below one at a time, give B-score for each.
1. COc1cc(NC(=O)CN(C)S(=O)(=O)c2ccc3nc(C)sc3c2)cc(OC)c1
2. Cc1ccc(CNC(=O)C2CC(=O)N(C3CCCCCCC3)C2)cc1 (stereo not given)
3. CCN(C(=O)CSc1nc2ccccc2n1CC)C1CCS(=O)(=O)C1 (stereo not given)
4. CNC(=S)N/N=C/c1ccc(OCc2ccccc2)c(Br)c1
5. Cc1cccc(N(CC(=O)Nc2ccc(-c3nc4ccc(C)cc4s3)cc2)S(C)(=O)=O)c1
6. O=C(CNC(=O)C12CC3CC(CC(C3)C1)C2)OCC(=O)N1CCCCC1

inactive
inactive
inactive
inactive
inactive
inactive

###

target: Mas-related G-protein coupled receptor member X1 (Homo sapiens) (UniProt Q96LB2); assay: blockade of BAM8-22-evoked MrgX1 calcium response – HEK293 cells, Fluo-4 calcium flux, primary screen (AID 588676); settings: Fluo-4, BAM8-22 antagonism, at 10 µM
Sequence (Q96LB2 whole entry, looked up): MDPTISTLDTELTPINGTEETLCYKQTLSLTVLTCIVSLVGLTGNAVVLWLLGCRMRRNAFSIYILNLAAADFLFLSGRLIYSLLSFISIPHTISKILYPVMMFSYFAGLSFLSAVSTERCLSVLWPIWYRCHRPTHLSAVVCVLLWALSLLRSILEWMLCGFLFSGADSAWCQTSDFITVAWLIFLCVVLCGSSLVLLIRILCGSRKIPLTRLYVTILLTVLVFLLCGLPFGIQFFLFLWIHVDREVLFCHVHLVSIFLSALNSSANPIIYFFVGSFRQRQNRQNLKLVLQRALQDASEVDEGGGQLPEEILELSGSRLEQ
The campaign covered roughly 310,000 compounds. About 3,900 (1.3%) were called active.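 The calls were made as follows: active = calcium-response B-score plate-corrected more than 3 library SD below zero, starting fluorescence within 5 deviations, no agonist response on first addition; inactive = the rest.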 For the sample, actives were picked, then their nearest neighbours and some compounds at random.
Returns: one label drawn from Y for active, N for inactive

What was the test verdict on `CCOc1ccc(CCNC(=O)Nc2ccccc2)cc1OCC` ?
N

In this assay, the call recorded for `CN(C)CCCn1c(=O)n(Cc2ccccc2)c(=O)c2c3c(sc21)CCCCC3` was what?
N

Assay outcome for CCOC(=O)C1CN(S(=O)(=O)c2ccc(OC)cc2)c2cc(Cl)ccc2O1 (stereo not drawn) : what was it?
N

I would be grateful if you could indicate the recorded call for `Cc1ccc(NC(=O)c2nc[nH]c2C(=O)N[C@@H](CCCCNC(=O)OC(C)(C)C)C(=O)OC(C)(C)C)cc1` .
Y

###

molecular target: Mas-related G-protein coupled receptor member X1 (Homo sapiens) (UniProt Q96LB2); assay: blockade of BAM8-22-evoked MrgX1 calcium response – HEK293 cells, Fluo-4 calcium flux, primary screen (AID 588676); conditions: Fluo-4, BAM8-22 antagonism, at 10 µM
Out of some 310,000 compounds screened, about 3,900 (1.3%) were called active.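 Rule for the calls: active = calcium-response B-score plate-corrected more than 3 library SD below zero, starting fluorescence within 5 deviations, no agonist response on first addition; inactive = the rest.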 This is one part of a sample in which actives are shown more often than they occur.
Your answer must be one of the following: 1 (active), -1 (inactive)

Use these answered entries as a reference point.
COc1ccc(COC(=O)c2ccc(Cl)c(S(=O)(=O)N3CCOCC3)c2)cc1F :: -1
Cc1ccc(S(=O)(=O)NC(=O)Nc2nc(-c3ccc(F)c(F)c3)cs2)cc1 :: -1
C[C@@H](NC(=O)[C@@H]1Cc2ccccc2CN1)C(=O)NC1CCCC1 :: -1
O=C(Nc1ccc(F)c([N+](=O)[O-])c1)C1CC(=O)N(Cc2ccccc2)C1 (configuration not stated) :: -1
Cc1cc(Nc2cc(N3CCN(C)CC3)nc(Sc3ccc(NC(=O)C4CC4)cc3)n2)n[nH]1 :: 1

Returns: the outcome recorded for `Cc1cc(C)nc(N2CCC(C(=O)Nc3ccc4c(c3)OCCO4)CC2)n1` in this assay.
-1

Please let me know the test result on file for `Fc1ccccc1COc1ccccc1CNCc1ccncc1` .
-1

Returns: the outcome recorded for `CC(C)OCCCNc1ncnc2c1[nH]c1ccc(F)cc12` in this assay.
1

###

target: Mas-related G-protein coupled receptor member X1 (Homo sapiens) (UniProt Q96LB2); assay: blockade of BAM8-22-evoked MrgX1 calcium response – HEK293 cells, Fluo-4 calcium flux, primary screen (AID 588676); details: Fluo-4, BAM8-22 antagonism, at 10 µM
The campaign covered roughly 310,000 compounds. About 3,900 (1.3%) were called active.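 The calls were made as follows: active = calcium-response B-score plate-corrected more than 3 library SD below zero, starting fluorescence within 5 deviations, no agonist response on first addition; inactive = the rest.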 This excerpt belongs to a sample that is enriched for actives.
Returns: one label drawn from T for active, F for inactive

Cc1nc(N2CCN(c3ccccn3)CC2)c2c(C)c(C(=O)Nc3ccc(F)c(Cl)c3)sc2n1 :: T
COC1=CCC2([N+](=O)[O-])CN(CC(=O)O)CC1([N+](=O)[O-])C2 (stereo not given) :: T
Nc1nc(-c2sc3nc4c(cc3c2N)CCCC4)nc(N2CCOCC2)n1 :: F
O=C(CSc1ncccn1)NCCc1ccccc1 :: F
COc1ccccc1C(=O)NNC(=O)CCN1C(=O)/C(=C\c2ccccc2)SC1=S :: F

Recorded test outcome, item `O=C(COc1ccccc1F)NC1CC1`
F

Just curious, what result did `CN1CCC(=O)N([C@H](CO)Cc2ccccc2)CC1` get here?
F

Please let me know the test result on file for `CCc1ccc(-c2cc3c(=O)n(CC(=O)NCCCN4CCN(Cc5ccccc5)CC4)nc(C)n3n2)cc1` .
F

Entry `CCN1CCN(c2cc3nc(C)n(Cc4ccccc4)c(=O)c3cc2NC(=O)c2ccccc2F)CC1` : call = ?
F

// return assay outcome for `CCOC(=O)c1c(NC(=O)CSc2nccc(=O)[nH]2)sc(C)c1C`
F

Kindly provide the recorded test outcome for the following molecule: `O=C(COc1ncnc2ccccc12)NC(=O)NCc1ccccc1`
F

###

biological target: Mas-related G-protein coupled receptor member X1 (Homo sapiens); assay: blockade of BAM8-22-evoked MrgX1 calcium response – HEK293 cells, Fluo-4 calcium flux, primary screen (AID 588676); conditions: Fluo-4, BAM8-22 antagonism, at 10 µM
The campaign covered roughly 310,000 compounds. About 3,900 (1.3%) were called active.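 How the source made its calls: active means calcium-response B-score plate-corrected more than 3 library SD below zero, starting fluorescence within 5 deviations, no agonist response on first addition; inactive means the rest.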 This is one part of a sample in which actives are shown more often than they occur.
Hi! Could you answer with just one of these? 1.0 (active), 0.0 (inactive)

COCc1nnc(NC(=O)c2ccc3c(c2)OCO3)s1 :: 1.0
N#CC1=C(N)Oc2c(sc3ccccc23)C1c1ccco1 (centres undefined) :: 1.0
CCCc1nnc(NC(=O)c2cc(OC)cc(OC)c2)s1 :: 0.0
CC1CCC2CCCCC2N1C(=O)c1cc([N+](=O)[O-])cc([N+](=O)[O-])c1 (centres undefined) :: 0.0
O=C(Nc1ccc(Br)cc1)c1cc(S(=O)(=O)Nc2ccccn2)ccc1Cl :: 0.0
CCN(CC)c1ccc(NC(=O)c2ccc(=O)[nH]c2)cc1S(=O)(=O)Nc1ccc(OC)cc1 :: 1.0

Recorded call for `Nc1[nH][nH]c(=O)c1N=Nc1ccc2c(c1)OCO2` ?
0.0

Write down the call the test reported for this molecule. Item: `COc1ccc(N2CCN(C(=O)CN3C(=O)COc4ccccc43)CC2)cc1`
0.0

I would be grateful if you could indicate the recorded call for `C=CCSc1nc(Cc2ccc(Cl)cc2)nc2ccccc12` .
1.0

Write down the call the test reported for this molecule. Item: `CCOc1cc(C(=O)Nc2ncccn2)cc(OCC)c1OCC`
0.0

Record lookup: outcome of this test for `Cc1cc([N+](=O)[O-])ccc1NCc1cccc([N+](=O)[O-])c1` ?
0.0

Any idea what this test logged for `CCOC(=O)CNC(=O)CSc1nnc(COc2ccc(Cl)cc2)n1CC` ?
0.0

What did this assay record as the result for `COc1ccc(NS(=O)(=O)c2cc(NC(=O)CC(=O)c3ccc([N+](=O)[O-])cc3)ccc2C)cc1` ?
0.0

How was `CC(=O)OCCN(CCCn1c(-c2ccncc2)nc2ccccc21)c1nc(-c2ccc(C)cc2)cs1` classified in this test?
0.0

Outcome? `COc1ccc(NS(=O)(=O)c2ccc(NC(=O)c3ccc(N(C)S(C)(=O)=O)cc3)cc2)cc1`
0.0

Please state the recorded outcome for this molecule: `COc1ccc2c(c1)C(=O)Nc1cc(Cl)ccc1N2`
0.0
